Molecular target: hErbB3.mmh (soluble monomeric human ErbB3 extracellular domain with C-terminal myc-myc-hexahistidine tag) (human, UniProt P21860 20-642)
Sequence (P21860 other isoform, or with tags, fused parts or gaps): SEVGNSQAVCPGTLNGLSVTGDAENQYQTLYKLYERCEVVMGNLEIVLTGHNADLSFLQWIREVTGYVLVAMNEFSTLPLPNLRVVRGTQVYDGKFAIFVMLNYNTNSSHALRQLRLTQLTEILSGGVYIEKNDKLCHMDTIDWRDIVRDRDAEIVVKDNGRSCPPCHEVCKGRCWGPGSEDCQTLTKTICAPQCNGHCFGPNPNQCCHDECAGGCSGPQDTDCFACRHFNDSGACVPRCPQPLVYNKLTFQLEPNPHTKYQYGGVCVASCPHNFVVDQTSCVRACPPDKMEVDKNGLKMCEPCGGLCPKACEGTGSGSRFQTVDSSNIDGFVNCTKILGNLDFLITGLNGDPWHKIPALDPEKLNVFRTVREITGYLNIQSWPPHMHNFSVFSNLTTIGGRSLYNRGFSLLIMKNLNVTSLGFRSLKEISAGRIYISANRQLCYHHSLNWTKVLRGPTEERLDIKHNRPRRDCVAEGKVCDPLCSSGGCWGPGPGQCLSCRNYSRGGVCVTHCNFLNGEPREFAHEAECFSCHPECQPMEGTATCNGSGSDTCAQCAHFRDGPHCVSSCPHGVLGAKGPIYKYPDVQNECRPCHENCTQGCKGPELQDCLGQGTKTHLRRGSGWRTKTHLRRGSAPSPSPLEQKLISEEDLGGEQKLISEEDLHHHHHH
Experiment: SPR (Biacore), 25 C, mAb capture format
valueType: koff (s⁻¹)
Please give a number only; it is taken to be in s⁻¹.

binder | valueType | numericValue
H1M1940N (antibody, V domains shown, Hybridoma chimeric antibody: human variable domains, mouse constant domains (H1M prefix, mouse Fc)) VH: QVQVVESGGGVVQPGRSLRLSCAASGFTFSDYGMHWVRQAPGKGLEWVAIISYDGSNKYYADSVKGRFTVSRDNSKNTLYLQLDSLRPEDAAVFYCAREGAFNLDYYAMDVWGQGTTVTVSS VL: AIQMTQSPSSLSASVGDRVTITCRASQDIRNDLGWYQQKPGKAPNLLIYAASSLQSGVPSRFSGSGSGTDFTLTISSLQPEDFATYYCLQDSNYPLTFGGGTKVEIK | koff | 0.000138
H4H2098P (antibody, V domains shown, Fully human, human IgG4 Fc (H4H prefix)) VH: QVQLVESGGGVVQPGRSLRLSCAASGFTFSSFGMHWVRQAPGKGLEWVAVIWYVEINKYHADSVKGRFTISRDDSKNTVYLQMNSLRAEDTAVYYCARDWNDGDYGMDVWGQGTTVTVSS VL: DIQLTQSPSFLSASVGDRVTITCWASQGISSFLAWYQQKAGKAPRLLIYAASTLQTGVPSRFSGSGSGTEFTLTISSLQPGDFATYHCQQLNSYPYTFGQGTKLEIKR | koff | 7.89e-05
H2M1824N (antibody, V domains shown, Hybridoma chimeric antibody: human variable domains, mouse IgG2 Fc (H2M prefix)) VH: EVQLVESGGGVVRPGGSLRLSCAASGFTFDDYGMSWVRQAPGKGLECVSGINWNGGSTDYADSVKGRFTISRDNAKNSLYLQMNSLRAEDTASYYCARDGGDWDYFDLWGRGTLVTVSS VL: EIVMTQSPATLSVSPGERATLSCRASQSVSSNLAWYQQKPGQAPRLLIYGASTRATGIPARFSGSGSGTEFTLTISSLQSEDFAVYFCQEYNDWPLTFGGGTKVEIK | koff | 4.56e-05

Attention now turns to another entry.
*Q* Recorded koff of H4H1819N (antibody, V domains shown, Human IgG4 Fc (H4H prefix); same variable domains as H1M1819N) VH: EVQLVESGGGVVRPGGSLRLSCAASGFTFDDYAMHWVRQAPGKGLEWVAGISWNSGSIDYADSVKGRFTISRDNAKNSLYLQMNSLRAGDTALYYCAKDILDLDYYGLDVWGQGTTVTVSS VL: DIQMTQSPSSLSASVGDRVTITCRASQDISSYLAWYQQKPGKVPNLLIYDASSLQSGVPSRFSGSGSGTDFTLTLSSLQPEDFASYYCQNYNSAPYTFGQGTKLEIK , please.
*A* 0.000351
